- targetOfAssay: T1, human IL-1RAcP on 293T/17-FR cells (human, UniProt Q9NPH3 21-570)
- T1 sequence (looked up): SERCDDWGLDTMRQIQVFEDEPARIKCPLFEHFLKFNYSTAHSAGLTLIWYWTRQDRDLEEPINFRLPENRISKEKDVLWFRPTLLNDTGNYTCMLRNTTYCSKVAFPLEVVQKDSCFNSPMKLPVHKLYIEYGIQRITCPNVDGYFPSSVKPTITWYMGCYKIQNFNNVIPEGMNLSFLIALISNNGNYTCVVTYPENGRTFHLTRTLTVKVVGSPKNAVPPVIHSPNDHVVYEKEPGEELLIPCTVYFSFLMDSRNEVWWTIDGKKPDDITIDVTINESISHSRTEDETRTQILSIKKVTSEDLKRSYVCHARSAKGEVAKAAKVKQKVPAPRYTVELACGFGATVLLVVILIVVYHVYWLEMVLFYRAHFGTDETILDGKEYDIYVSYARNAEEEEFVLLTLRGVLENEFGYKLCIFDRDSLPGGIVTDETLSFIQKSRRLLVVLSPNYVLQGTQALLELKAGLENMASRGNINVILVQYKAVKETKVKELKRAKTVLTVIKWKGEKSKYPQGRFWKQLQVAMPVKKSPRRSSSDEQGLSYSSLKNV
- experimentNotes: cell-based or functional assay
testReadout: functional reporter gene assay (% inhibition), 1 µg/mL mAb (%)
State the answer as a number, implicitly in %.

Use these answered entries as a reference point.
P013.S.01.B.E06 (antibody, V domains shown, rabbit monoclonal antibody; also called P013.A.00030.F07) VH: QSLEESGGDLVKPGASLTLTCTASGFSFSSTYYMCWVRQAPGKGLEWIACIYAGSSGSTYYASWAKGRFTISKTSSTTVTLQMTSLTAADTATYFCARVDGSSSGSWDLWGPGTLVTVSS VL: AIEMTQTPSSVSAAVGGTVTINCQASQNIYSNLAWYQQKPGQRPKLLIYAASLLASGVPSRFKGNGSGTEYTLTISDLESADAATYYCQGAVYSGNTEWAFGGGTEVVVK
93
P013.S.01.B.C02 (antibody, V domains shown, rabbit monoclonal antibody; also called P013.A.00014.C10) VH: QSLEESGGDLVKPGASLTLTCTASGFSFSSSHYMCWVRQAPGKGLEWIACIYAGSSGNTYYANWAKGRFTISKTSSTTVTLQMTSLTAADTATYFCARVDASSSGSWDLWGPGTLVTVSS VL: AIEMTQTPFSVSAAVGGTVTINCQASESIYSNLAWYQQILGQPPKLLIYAASLLASGVPSRFKGSGSGTEYTLTISGVQSADAATYYCQSASYSTGPDWTFGGGTEVVVE
99

input: What functional reporter gene assay (% inhibition), 1 µg/mL mAb value was documented for this binder, P013.S.01.B.F02 (antibody, V domains shown, rabbit monoclonal antibody; also called P013.A.00043.D08) VH: QEQLVESGGGLVQPEGSLTLTCTASGFSFSSNYWMCWVRQAPGKGLEWIACIYTGGSGVTYYASWAKGRFTLSKTSSTTVTLQVTSLTAADTATYFCARDLVVVTSFNLWGQGTLVTVSS VL: ALMMTQTPSPVSAAVGGTVTINCQASEDIYSNLAWYQQKPGQPPKLLIYSASTLASGVPSRFSGSGSGTEFTLTISGVQSDDAATYYCLGVCTDISVDDVYNSFGGGTEVVVK ?
output: 80

input: Again, but for P013.S.01.B.E03 (antibody, V domains shown, rabbit monoclonal antibody; also called P013.A.00015.E03) VH: QSLEESGGRLVTPGTPLTLTCTASGFSITNYHISWVRQAPGKGLEWIGYIYAGRDFTYYANWAEGRFTISKTSTTVDLQVTVPTTEDTATYFCARDGGSPNWTLDLWGQGTLVTVSS VL: DVVMTQTPASVSEPVGGTVTINCQASESISDYLSWYQQKPGQPPKLLIYRASTLESGVSSRFKGSGSGTQFTLTISDLESADAATYYCQSNYYDSRGNAFGGGTEVVVK
output: 60

input: Again, but for P013.S.02.B.E01 (antibody, V domains shown, rabbit monoclonal antibody; also called P013.A.00013.G07) VH: QSLEESGGRLVTPGTPLTLTCTVSGFSLSIYGMGWVRQAPGEGLEWIGSISSGGSTYYATWAKGRFTISKTSSTTLDLKITSPTTEDTATYFCVRSDGYTNGDYDTYFNLWGQGTLVTVS VL: DIVMTQTPASVSEPVGGTVTIRCQASQSISSWLSWYQQKPGQPPKLLIYQASALASGVSSRFIGSGYGTEFTLTISGVQSEDAATYYCQCTYGIGSNSDYGVAFGGGTEVVVK
output: 56
